assay: galactose survival enhancers in mitochondrial complex I cybrids – cell-based, galactose medium, ATP luminescence, primary screen (AID 1645843); settings: complex I mutant cybrid cells, 72 h;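 also: positive z means more ATP and so rescue of galactose-driven cybrid death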
The source made the active and inactive calls.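 The calls were made as follows: active = z-score of at least 1.8 in each of two replicates, scored against plate mean and spread of sample wells; inactive = the rest.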
Outcome field: choose from True = active, False = inactive

See these solved cases before continuing.
MOLECULE: CCCn1c(=O)[nH]c2nc(-c3ccc(S(=O)(=O)O)cc3)[nH]c2c1=O
CLASS LABEL: False

MOLECULE: O=C1CC2(CCCC2)CC(=O)N1CCCCNCC1COc2ccccc2O1 (stereo not given)
CLASS LABEL: False

MOLECULE: Nc1nc(Nc2ccccc2)nc2c1ncn2[C@@H]1O[C@H](CO)[C@@H](O)[C@H]1O
CLASS LABEL: False

MOLECULE: CCCCCCCC/C=C\CCCCCCCC(=O)N[C@@H](CO)Cc1ccc(O)cc1
CLASS LABEL: False

MOLECULE: O[C@@H]1[C@H](O)[C@@H](CCl)O[C@H]1n1cnc2c(NC3CC4CCC3C4)ncnc21 (stereo not given in full)
CLASS LABEL: False

For this molecule, state the assay outcome: CCCCCCNC(=O)Nc1ccc(S(=O)(=O)Nc2ccc(CCNC[C@H](O)COc3ccc(O)cc3)cc2)cc1 False

For this molecule, state the assay outcome: Nc1ccc(-c2cccc3c(=O)cc(N4CCOCC4)oc23)cc1 True

For this molecule, state the assay outcome: N#C/C(=C\c1ccc(O)c(O)c1)C(N)=O False

For this molecule, state the assay outcome: O=C(c1c(O)c2ccc(Cl)cc2[nH]c1=O)C1CC1 False

For this molecule, state the assay outcome: COCCNC(=O)COc1ccc(OCCNC[C@@H](O)COc2ccccc2)cc1 False

---

experiment: viability loss in pontine glioma line – cell-based, SU-DIPG-XVII, MIPE5.0, CellTiter-Glo, qHTS, dose response (AID 1347060); details: CellTiter-Glo ATP luminescence;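 as to AC50: cells exposed to compound for 48 hours before viability readout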
Results filed as inconclusive are left out. The source made the active and inactive calls. No cut-off is given here; in the data, nearly all actives have AC50 up to about 26 µM.
Outcome field: choose from active, inactive

See these solved cases before continuing.
STRUCTURE SMILES: CN1CCN(C2CCN(C(=O)Nc3cc(Oc4ccc(NC(=O)C5(C(=O)Nc6ccc(F)cc6)CC5)c(F)c4)ccn3)CC2)CC1
CLASS LABEL: active

STRUCTURE SMILES: CCn1c(=O)c(-c2ccc(-c3cncs3)cc2Cl)cc2cnc(Nc3ccc(N4CCN(C)CC4)cc3)nc21
CLASS LABEL: active

STRUCTURE SMILES: CC(C)c1nn(-c2c(Cl)cccc2Cl)c2nc(Cc3ccc(OCCO)cc3)[nH]c(=O)c12
CLASS LABEL: active

STRUCTURE SMILES: CC1=C2[N-][C@H]([C@H](CC(N)=O)[C@@]2(C)CCC(=O)NC[C@@H](C)OP(=O)([O-])O[C@H]2[C@@H](O)[C@@H](n3cnc4cc(C)c(C)cc43)O[C@@H]2CO)[C@]2(C)N=C(C(C)=C3N=C(C=C4N=C1[C@@H](CCC(N)=O)C4(C)C)[C@@H](CCC(N)=O)[C@]3(C)CC(N)=O)[C@@H](CCC(N)=O)[C@]2(C)CC(N)=O.O.[Co+2]
CLASS LABEL: inactive

STRUCTURE SMILES: CCOC(CN1C(=O)[C@](CC(=O)Nc2ccc(C)cc2)(NC(=O)Nc2ccc(C)cc2)c2ccccc21)OCC
CLASS LABEL: active

For this compound, state the assay outcome: CN[C@@H](C)C(=O)N[C@H](C(=O)N1CCC[C@H]1c1nc(C(=O)c2ccc(F)cc2)cs1)C1CCCCC1 inactive

---

test: compounds altering HSF1 focus formation in cells – imaging, Selleck Cancer Library (AID 1347162); conditions: human cells, HSF1 nuclear foci imaging, at 10 µM; stronger effect = lower value
MEASURED ENDPOINT: plate-normalised HSF1 focus index
Reply: number alone, nothing else.

Look over these answered cases.
MOLECULE: COC(=O)c1ccc2c(C(=Nc3ccc(N(C)C(=O)CN4CCN(C)CC4)cc3)c3ccccc3)c(O)[nH]c2c1
plate-normalised HSF1 focus index: 1.08
//
MOLECULE: CN1CCC(CNc2ccc3ncc(-c4cccc(OC(F)(F)F)c4)n3n2)CC1
plate-normalised HSF1 focus index: 1.1
//
MOLECULE: COc1cc(OC2CCN(C)CC2)ccc1Nc1ncc2c(n1)n(C1CCCC1)c(=O)n2C
plate-normalised HSF1 focus index: 1.05
//
MOLECULE: CN(C)Cc1c(C(=O)NCCOc2ccc(C(=O)NO)cc2)oc2ccccc12
plate-normalised HSF1 focus index: 1.05
//
MOLECULE: COc1cc2nccc(Oc3ccc(NC(=O)NC4CC4)c(Cl)c3)c2cc1C(N)=O
plate-normalised HSF1 focus index: 1.14

What measured plate-normalised HSF1 focus index goes with O=C(/C=C/c1cccc(S(=O)(=O)Nc2ccccc2)c1)NO ? 0.885

What measured plate-normalised HSF1 focus index goes with NC(=O)Nc1cc(-c2cccc(F)c2)sc1C(=O)N[C@H]1CCCNC1 ? 0.95

What measured plate-normalised HSF1 focus index goes with CCC(CC)CC1(C(=O)Nc2ccccc2SC(=O)C(C)C)CCCCC1 ? 1.09

What measured plate-normalised HSF1 focus index goes with CN(c1ncccc1CNc1nc(Nc2ccc3c(c2)CC(=O)N3)ncc1C(F)(F)F)S(C)(=O)=O ? 0.528

What measured plate-normalised HSF1 focus index goes with Cc1nn(-c2ccccc2)c(C)c1/C=N/N1CCN(Cc2ccccc2)CC1 ? 1.18

What measured plate-normalised HSF1 focus index goes with COc1ccc(C2CC(c3ccccc3)=NN2c2ccc(S(N)(=O)=O)cc2)cc1 (centres undefined) ? 1.13

---

test: viability loss in pontine glioma line – cell-based, SU-DIPG-XVII, MIPE5.0, CellTiter-Glo, qHTS, dose response (AID 1347060); conditions: CellTiter-Glo ATP luminescence;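 as to AC50: cells exposed to compound for 48 hours before viability readout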
Results filed as inconclusive are left out. Calls of active or inactive are those of the source. The limit is not given here; nearly all actives have AC50 up to about 26 µM.
Outcome field: choose from active, inactive

See these solved cases before continuing.
COMPOUND: O=C(c1ccc(C(=O)N2CCC(N3CCCC3)CC2)c(Nc2ccccc2)c1)N1CCC(N2CCCC2)CC1
CLASS LABEL: inactive
//
COMPOUND: CCc1cccc(CC)c1NC(=O)N1Cc2[nH]nc(NC(=O)c3ccc(N4CCN(C)CC4)cc3)c2C1
CLASS LABEL: active
//
COMPOUND: COc1cc2c(cc1OC(C)C)[C@H](c1ccc(Cl)cc1)N(c1ccc(N(C)CC3CCC(N4CCN(C)C(=O)C4)CC3)cc1)C(=O)C2 (stereo not given in full)
CLASS LABEL: active
//
COMPOUND: OCCNC1CCCc2c1[nH]c1ccc(-c3ccccc3)cc21 (stereo not given)
CLASS LABEL: active

Now for another entry.
For this compound, state the assay outcome: CN1CCN(c2ccc3nc(-c4c(N)c5c(F)cccc5[nH]c4=O)[nH]c3c2)CC1 active

---

test: growth inhibition, single agents and combos, LFS_MB_2R, cell-based, cisplatin combos, synergistic combos for chromothripsis tumors (AID 1671457); settings: LFS_MB_2R medulloblastoma cells, measured here: combination with cisplatin, at 0.5 µM, stronger effect = higher value;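 also: cells exposed to compound for four days before readout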
Note to self: values exactly at -10% are 1. So inhibition at or above -10% is 1, below is -1.

Form field: inhibition at least -10%? Entry: CO[C@H]1/C=C/O[C@@]2(C)Oc3c(C)c(O)c4c(O)c(c(/C=N\N5CCN(C6CCCC6)CC5)c(O)c4c3C2=O)NC(=O)/C(C)=C\C=C\[C@H](C)[C@H](O)[C@@H](C)[C@@H](O)[C@@H](C)[C@H](OC(C)=O)[C@@H]1C -1

---

test: growth inhibition of DIPG cells – cell-based, MIPE5.0 library, qHTS (AID 1347068); conditions: SU-DIPG-XXV viability;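 as to IC50: cells exposed to compound for 48 hours before viability readout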
Inconclusive results are not listed. The source made the active and inactive calls. The limit is not given here; nearly all actives have IC50 up to about 30 µM.
Outcome field: choose from true for active, false for inactive

See these solved cases before continuing.
MOLECULE: NC(=O)Nc1cc(-c2ccc(CN3CCOCC3)cc2)sc1C(N)=O
CLASS LABEL: true

MOLECULE: CC(=O)NCCC(=O)N[C@@H](CCC(N)=O)C(=O)N[C@@H](CO)C(=O)N[C@@H](CCC(N)=O)C(=O)N[C@@H](CCC(N)=O)C(=O)N[C@H](C(=O)N[C@@H](Cc1ccccc1)C(=O)N[C@]1(C)CCCCCC/C=C\CCC[C@@](C)(C(=O)N[C@@H](CCC(N)=O)C(=O)N[C@@H](CC(N)=O)C(N)=O)NC(=O)[C@H](CC(C)C)NC(=O)[C@H](CC(C)C)NC(=O)[C@@H](CCCNC(=N)N)NC(=O)[C@H](Cc2c[nH]c3ccccc23)NC(=O)[C@H](CC(C)C)NC(=O)[C@H](CC(N)=O)NC1=O)[C@H](C)O
CLASS LABEL: false

MOLECULE: Cc1ccc(Nc2ncc3c(n2)N(C)C(=O)N(c2cc(NC(=O)c4cccc(C(F)(F)F)c4)ccc2C)C3)cn1
CLASS LABEL: true

MOLECULE: C=CC(=O)N1CC(N2CCN(C(=O)CNc3cc(C4(C)CC4)c(Cl)cc3O)CC2)C1
CLASS LABEL: false

MOLECULE: O=C1CCCC(=O)C1C(=O)c1ccc(C(F)(F)F)cc1[N+](=O)[O-]
CLASS LABEL: false

For this molecule, state the assay outcome: Nc1nc(F)nc2c1ncn2C1OC(COP(=O)(O)O)C(O)C1O (centres undefined) false

For this molecule, state the assay outcome: COCCOc1ccc(N2CCN(CCn3ncc4c3nc(N)n3nc(-c5ccco5)nc43)CC2)cc1 false

For this molecule, state the assay outcome: Cc1nn(C)c2c1C(c1ccc(C(F)(F)F)cc1)C(C#N)=C(N)O2 (centres undefined) false
